Molecular target: Cysteinyl leukotriene receptor 1 (Cavia porcellus, UniProt Q2NNR5)
Sequence (Q2NNR5 whole entry): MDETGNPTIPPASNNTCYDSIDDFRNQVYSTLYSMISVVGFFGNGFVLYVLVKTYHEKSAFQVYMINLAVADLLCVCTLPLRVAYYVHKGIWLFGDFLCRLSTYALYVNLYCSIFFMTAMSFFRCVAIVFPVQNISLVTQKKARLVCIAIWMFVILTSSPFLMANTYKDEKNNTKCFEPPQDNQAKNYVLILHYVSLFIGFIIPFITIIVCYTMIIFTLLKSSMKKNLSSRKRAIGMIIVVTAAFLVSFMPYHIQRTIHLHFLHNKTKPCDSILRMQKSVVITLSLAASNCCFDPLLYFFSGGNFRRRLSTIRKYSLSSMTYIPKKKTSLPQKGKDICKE
Test: Binding affinity against Cysteinyl leukotriene D4 receptor from guinea pig lung was determined using [3H]LTD4
PROPERTY MEASURED: Ki (nM)
Numbers only here, please. The scale is nM.

Look at this compound and give its reported Ki. O=S(=O)(Nc1cccc(OCc2ccc3ccccc3n2)c1)C(F)(F)F
35

* * *

Documented pKi across a set of compounds
Target: Cysteinyl leukotriene receptor 1 (Cavia porcellus, UniProt Q2NNR5)
Sequence (Q2NNR5 whole entry): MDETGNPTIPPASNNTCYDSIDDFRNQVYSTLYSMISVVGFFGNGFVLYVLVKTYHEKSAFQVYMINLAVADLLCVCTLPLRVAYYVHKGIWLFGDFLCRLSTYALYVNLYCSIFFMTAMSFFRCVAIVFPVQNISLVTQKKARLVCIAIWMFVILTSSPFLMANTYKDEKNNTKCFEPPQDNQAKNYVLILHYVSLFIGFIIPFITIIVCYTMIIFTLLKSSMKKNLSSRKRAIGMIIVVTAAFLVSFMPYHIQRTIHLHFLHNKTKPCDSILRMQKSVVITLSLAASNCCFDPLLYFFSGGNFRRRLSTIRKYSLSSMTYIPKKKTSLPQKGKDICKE
Test: Binding affinity against Cysteinyl leukotriene D4 receptor from guinea pig lung was determined using [3H]-LTD4 (0.2 nM)
Kindly note that pKi refers to -log10 of the concentration in mol/L and answer with the value alone.

[
  {
    "TEST SMILES": "c1cc(OCc2ccc3ccccc3n2)cc(OCc2ccccc2OCc2nn[nH]n2)c1",
    "SYSTEM TESTED": "Cysteinyl leukotriene receptor 1 (Cavia porcellus, UniProt Q2NNR5)",
    "pKi": 7.77
  },
  {
    "TEST SMILES": "c1ccc(Cc2nn[nH]n2)c(COc2ccc(OCc3ccc4ccccc4n3)cc2)c1",
    "SYSTEM TESTED": "Cysteinyl leukotriene receptor 1 (Cavia porcellus, UniProt Q2NNR5)",
    "pKi": 8.52
  }
]

Look at this compound and give its reported pKi. c1cc(OCc2ccc(OCc3nn[nH]n3)cc2)cc(OCc2ccc3ccccc3n2)c1
8.66

Similarly, COc1cc(-c2nn[nH]n2)ccc1OCc1cccc(OCc2ccc3ccccc3n2)c1 ?
7.80

Similarly, c1ccc2nc(COc3ccc(COc4ccc(-c5nn[nH]n5)cc4)cc3)ccc2c1 ?
7.51

* * *

Molecular target: Cysteinyl leukotriene receptor 1 (Cavia porcellus, UniProt Q2NNR5)
Sequence (Q2NNR5 whole entry): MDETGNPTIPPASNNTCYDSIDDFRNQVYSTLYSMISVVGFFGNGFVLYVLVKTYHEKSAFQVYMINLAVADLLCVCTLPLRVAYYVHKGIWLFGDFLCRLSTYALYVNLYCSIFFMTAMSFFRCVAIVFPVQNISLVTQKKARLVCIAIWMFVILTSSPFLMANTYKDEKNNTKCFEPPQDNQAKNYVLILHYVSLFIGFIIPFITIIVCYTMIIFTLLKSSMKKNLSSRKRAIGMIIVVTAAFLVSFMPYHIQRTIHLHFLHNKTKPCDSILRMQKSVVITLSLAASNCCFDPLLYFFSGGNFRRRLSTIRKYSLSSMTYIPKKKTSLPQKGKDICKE
Assay: Binding affinity against Cysteinyl leukotriene D4 receptor from guinea pig lung was determined using [3H]-LTD4 (0.2 nM)
PROPERTY MEASURED: log10 of Ki (log10 of the value in nM)
Plainly stated, the numbers are log10 of Ki given in nM.

[
  {
    "TEST SMILES": "c1cc(COc2cccc(-c3nn[nH]n3)c2)cc(OCc2ccc3ccccc3n2)c1",
    "PROPERTY MEASURED": "log10 of Ki",
    "ASSAY RESULT": 0.72
  },
  {
    "TEST SMILES": "COc1cc(OCc2ccc(OCc3ccc4ccccc4n3)cc2)cc(-c2nn[nH]n2)c1",
    "PROPERTY MEASURED": "log10 of Ki",
    "ASSAY RESULT": 0.88
  },
  {
    "TEST SMILES": "c1cc(COc2ccc(OCc3ccc4ccccc4n3)cc2)cc(-c2nn[nH]n2)c1",
    "PROPERTY MEASURED": "log10 of Ki",
    "ASSAY RESULT": 0.34
  },
  {
    "TEST SMILES": "COc1cc(OCc2cccc(OCc3ccc4ccccc4n3)c2)cc(-c2nnn[nH]2)c1",
    "PROPERTY MEASURED": "log10 of Ki",
    "ASSAY RESULT": 1.00
  },
  {
    "TEST SMILES": "COc1cc(COc2cccc(OCc3ccc4ccccc4n3)c2)cc(-c2nn[nH]n2)c1",
    "PROPERTY MEASURED": "log10 of Ki",
    "ASSAY RESULT": 0.85
  },
  {
    "TEST SMILES": "c1cc(CCc2cccc(-c3nn[nH]n3)c2)cc(OCc2ccc3ccccc3n2)c1",
    "PROPERTY MEASURED": "log10 of Ki",
    "ASSAY RESULT": 1.23
  },
  {
    "TEST SMILES": "c1cc(COc2ccc(-c3nn[nH]n3)cc2)cc(OCc2ccc3ccccc3n2)c1",
    "PROPERTY MEASURED": "log10 of Ki",
    "ASSAY RESULT": 0.46
  },
  {
    "TEST SMILES": "C(=C\\c1ccc2ccccc2n1)/c1ccc(OCc2ccccc2Cc2nnn[nH]2)cc1",
    "PROPERTY MEASURED": "log10 of Ki",
    "ASSAY RESULT": 0.53
  }
]

Look at this compound and give its reported log10 of Ki. O=C(O)c1ccc(COc2cccc(OCc3ccc4ccccc4n3)c2)cc1
1.95

Similarly, c1cc(OCc2ccc3ccccc3n2)cc(OCc2ccccc2-c2nnn[nH]2)c1 ?
1.30

Similarly, COC(=O)c1ccc(COc2cccc(OCc3ccc4ccccc4n3)c2)c(OCc2nn[nH]n2)c1 ?
0.90

Similarly, c1cc(COc2cccc(OCc3ccc4ccccc4n3)c2)cc(Cc2nnn[nH]2)c1 ?
1.00

Similarly, c1cc(OCc2cccc(OCc3nn[nH]n3)c2)cc(OCc2ccc3ccccc3n2)c1 ?
1.11

Similarly, O=C(O)c1cccc(COc2cccc(OCc3ccc4ccccc4n3)c2)c1 ?
1.60

Similarly, c1cc(OCc2ccc(Cc3nnn[nH]3)cc2)cc(OCc2ccc3ccccc3n2)c1 ?
0.86

Similarly, c1ccc(OCc2nn[nH]n2)c(COc2ccc(OCc3ccc4ccccc4n3)cc2)c1 ?
0.32

Similarly, COc1cc(-c2nn[nH]n2)ccc1OCc1ccc(OCc2ccc3ccccc3n2)cc1 ?
1.34

Similarly, c1cc(COc2ccc(OCc3ccc4ccccc4n3)cc2)cc(Cc2nnn[nH]2)c1 ?
0.90
